Tested on: H2347 lung cell line
Assay method text: In vitro cytotoxicity assay (MTS), IC50 determination
Format: cell-based, human
Recorded conditions: H2347 cells, 72 hours, mean of 4 tests, read-out: Mean IC50 (uM) to BMS-A
Measured quantity: IC50

So, `Cc1nc(Nc2ncc(C(=O)Nc3c(C)cccc3Cl)s2)cc(N2CCN(CCO)CC2)n1` ? Its IC50 was ≥ 1.02 µM

---

Test system: H838 lung cell line
Assay method text: In vitro cytotoxicity assay (MTS), IC50 determination
Assay type: cell-based, human
Recorded conditions: H838 cells, MTS, 72 hours, mean of 4 tests; read-out: Mean IC50 (uM) to BMS-A
Measured quantity: IC50 (µM)
The reply should be a number in µM, with the unit left off.

So, `Cc1nc(Nc2ncc(C(=O)Nc3c(C)cccc3Cl)s2)cc(N2CCN(CCO)CC2)n1` ? Its IC50 was 0.072
